The values you see were collected from the RNAGym collection of RNA variant scans (doi:10.7554/elife.80360).

B1: Hairpin Ribozyme (parent)
chain: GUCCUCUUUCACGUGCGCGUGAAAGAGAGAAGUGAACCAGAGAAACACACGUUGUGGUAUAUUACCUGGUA

Variants of: B1
Assay: self-cleavage, relative activity (ratio to wild type); higher = more cleavage; co-transcriptional
Recorded self-cleavage, one value per entry.
OUTCOME_MEASURE: self-cleavage

>>> data_value("GUCCUCUUUGUCGUGCGCGUGAAAGAGAGAAGUGAACCAGAGAAACACACGUUGUGGUAUAUUACCUGGUA")
0.358
>>> data_value("GUCCUCUUUCAGGUGCGCGUGAAAGAGAGAAGUGAACCAGAUAAACACACGUUGUGGUAUAUUACCUGGUA")
0.343
>>> data_value("GUCCUCUUUCACGUGCGCGUGAAAGAGAGAAGUGAACCAGAGAAACACACGUUGUGGUAUAUUACUUUGUA")
0.334
>>> data_value("GUCCUCUUUCACGUGCGCGAGAAAGAGAGAAGUGAACCAGAGAAACACACGUUGUGGGAUAUUACCUGGUA")
0.762
>>> data_value("GUCCUCUUACACGUGCGCGUGAAAGAGAGAAGUGAACCAGAGAAACACACGUUGUGGUAUAUUACGUGGUA")
0.0453
>>> data_value("GUCCUCUUUCACGUGCGCGUGAAAGAGAGAAGUGAACCAGUGAAACACACGUUGUGGUAUAUUACCUGGGA")
1.1
>>> data_value("GUCCUCUUUCACGUGCGUGUGAAAGAGAGACGUGAACCAGAGAAACACACGUUGUGGUAUAUUACCUGGUA")
0.0854
>>> data_value("GUCCUCUUUCAUGUGCGCGUGAAAGAGAGAAGUGCACCAGAGAAACACACGUUGUGGUAUAUUACCUGGUA")
0.975
>>> data_value("GUCCUCUUUCACGUGCGUGUGAAAGAGAGAAGUGAACCCGAGAAACACACGUUGUGGUAUAUUACCUGGUA")
0.66
>>> data_value("GUCCUCUUUCACGUGCGCGUGAAAGAGAGAAGUGACCCAGAGAAACACACGUUGUGGUAGAUUACCUGGUA")
0.361
>>> data_value("GUCCUCUUUCACGUGCGCGAGAAAGAGAGAAGUGAACCAGACAAACACACGUUGUGGUAUAUUACCUGGUA")
0.306
>>> data_value("GUCCUCUUUCACGUGCGCGUGAAAGAGAGAAGGGAACCAAAGAAACACACGUUGUGGUAUAUUACCUGGUA")
0.245
>>> data_value("GUCCACUUUCACGUGCGCGUGAAAGAGAGAAGUGAACCGGAGAAACACACGUUGUGGUAUAUUACCUGGUA")
0.101
>>> data_value("GUCCUUUUUCACGUGCGCGUGAAAGAGAGAAGUGAACCAGAGAAACACACGUUGUGGUAUAUUGCCUGGUA")
0.514
>>> data_value("GUCCUAUUUCACGUGCGCGUGAAAGAGAGAAGUGAACCAGAGAAACACACGUUGUGGUCUAUUACCUGGUA")
0.113
>>> data_value("GUCCUCUUUCACGUGCGCGUGAAAGAGAGAAGUGAACAAGAGAAACACACGUUGUGGUACAUUACCUGGUA")
0.251
>>> data_value("GUCCUCCUUCACGUGCGCGUGAAAGAGAGAAGUGAACCCGAGAAACACACGUUGUGGUAUAUUACCUGGUA")
0.583
>>> data_value("GUCCUCUUUCACGUGCGCGUGAAAGAGAGAAGUGAACCAGAGAAACACCCGCUGUGGUAUAUUACCUGGUA")
0.16
>>> data_value("GUCCUCUUUCACGUGCGCCUGAAAGAGAGAAGUGAACCAGAGAAACAUACGUUGUGGUAUAUUACCUGGUA")
0.132
>>> data_value("GUCCUCGUUCACGUGCGCGUGAAAGAGAGAAGUGAACCAGAGAAACACACGUUGUGGUAUAUUACCCGGUA")
0.217
>>> data_value("GUCCUCUUUCACGUGUGCGUGAAAGAGAGAAGUGAACCAGAGAAACACACCUUGUGGUAUAUUACCUGGUA")
1.08
>>> data_value("GUCCUCUUUCACGUGCGCGUGAAAGAGAGAAGUGAACCAGAGAAACACACGUUGUGGUAUAAUACUUGGUA")
0.143
>>> data_value("GUCCUCUUUCACGUGCGCGUGAAAGGGAGAAGUGAACCAGAGAAACACACGUUGUGGUAUAUUACCUUGUA")
0.131
>>> data_value("GUCCUCUUUCACGUGCGCGUGAAAGAGAGAAGUGAACCAGAUAAACAAACGUUGUGGUAUAUUACCUGGUA")
0.215
>>> data_value("GUCCUCUUUCACGUGCGCGUGAAAGAGAGAAGUGAACCAGAGAAACACAAGUUGUGGUAUCUUACCUGGUA")
0.173
>>> data_value("GUCCUCUUUCACCUGCGCGUGAAAGAGAGAAGUGAACCAGAGAAACCCACGUUGUGGUAUAUUACCUGGUA")
0.205
>>> data_value("GUCCUCUUUCACGUGCGCGUGAAAGAGAGAAGUGCACCAGAGAAACACACGUUGUGGUAGAUUACCUGGUA")
0.649
>>> data_value("GUCCUCCUUCACGUGCGCGUGAAAGAGAGAAGUGAACCGGAGAAACACACGUUGUGGUAUAUUACCUGGUA")
0.263
>>> data_value("GUCCUCUUUCACGUGCGCGUGAAAUAGAGAAGUGAACCAGAGAAACUCACGUUGUGGUAUAUUACCUGGUA")
0.205
>>> data_value("GGCCUCUUUCACGUGCGCGUGAAAGAGAGAAGUGAACCAGAGAAACACACGUUGGGGUAUAUUACCUGGUA")
0.367
>>> data_value("GUCCUCUUUCACGAGCGCGUGAAAGAGAGAAGUGAACAAGAGAAACACACGUUGUGGUAUAUUACCUGGUA")
0.171
>>> data_value("GUCCUCUUUCUCGUGCGCGUGAAAGAGAGAAGUGAACCAGAGAAACUCACGUUGUGGUAUAUUACCUGGUA")
0.266
>>> data_value("GUCCUCUUUCACGUGCGCGUGAAAGAGAGAAGUGAACCAGACAAACACACGUUGUGGCAUAUUACCUGGUA")
0.185
>>> data_value("GUCCUCUUUCACGUGCGCGUGAAAGAGAGAAGUGAACCCGAGAAACACACGUUGUGGUAUAUUCCCUGGUA")
0.193
>>> data_value("GUCCUCUUUCACGUGCGCGUGAAAGAGAGAUGUGAACCAGAGAAACGCACGUUGUGGUAUAUUACCUGGUA")
0.101
>>> data_value("GGCCUCAUUCACGUGCGCGUGAAAGAGAGAAGUGAACCAGAGAAACACACGUUGUGGUAUAUUACCUGGUA")
0.255
>>> data_value("GUCCUCUUUCACGAGCGCGUGAAAGAGAGAAGUGAACCAGAGAAACACACGUUGUGCUAUAUUACCUGGUA")
0.132
>>> data_value("GUCCUCUGGCACGUGCGCGUGAAAGAGAGAAGUGAACCAGAGAAACACACGUUGUGGUAUAUUACCUGGUA")
0.82
>>> data_value("GUCCUCUUUCACGUGCACGUGAAAGAGAGAAGUGAACCAGAGAAACGCACGUUGUGGUAUAUUACCUGGUA")
0.129
>>> data_value("GUCCUCUUUCACGUGCGCGUGAAAGAGAGAAGCGAACCAGAGAAACACACGUUGUGGUAUAUAACCUGGUA")
0.142
>>> data_value("GUCCUCUUUCACCUGCGCGUGAAAGAGCGAAGUGAACCAGAGAAACACACGUUGUGGUAUAUUACCUGGUA")
0.343
>>> data_value("GUCCUCUUUCACGUGCACGUGAACGAGAGAAGUGAACCAGAGAAACACACGUUGUGGUAUAUUACCUGGUA")
0.894
>>> data_value("GUCCUCUUUCACGUGCGCGUGAAAGAGAGAAGUGUACCUGAGAAACACACGUUGUGGUAUAUUACCUGGUA")
0.391
>>> data_value("CUCCUCUUUCACGUGCGCGUGAAAGAGCGAAGUGAACCAGAGAAACACACGUUGUGGUAUAUUACCUGGUA")
0.262
>>> data_value("GUCCUCUUUCACGUGCGCGUGAAAGAGAGAAGUGAACCAGAGAAACACACGUUGCAGUAUAUUACCUGGUA")
0.0854
>>> data_value("GUCCUCUUUCACGUGCGCGUGAAAGAAAGAAGUGAACCAGAGAAACUCACGUUGUGGUAUAUUACCUGGUA")
0.111
